- assay-text: AUC (0 to 48 hrs) in human SJSA1 cells xenografted rat assessed as mouse survival at 70 mg/kg, po dosed 3 times per week
- Type: ADME, organism-based, SJSA-1
- Parameters: time < 48 hr, dose 70 mg/kg, route oral
- conditions: in vivo
value-type: AUC at 48 h
Please make sure the unit comes right after the number.

Req: Given the compound COc1cc2c(cc1OC(C)C)[C@H](c1ccc(Cl)cc1)N(c1ccc(N(C)C[C@H]3CC[C@H](N4CCN(C)C(=O)C4)CC3)cc1)C(=O)C2 , what is its reported AUC at 48 h?
Resp: 1040 µM·h

* * *

- assay-text: Protein binding in cynomolgus monkey plasma by equilibrium dialysis method
- Assay type: ADME, cell-free, Macaca fascicularis
- conditions: read-out: PPB
value-type: fraction unbound

Req: Look at this molecule and give its reported fraction unbound. COc1cc2c(cc1OC(C)C)[C@H](c1ccc(Cl)cc1)N(c1ccc(N(C)C[C@H]3CC[C@H](N4CCN(C)C(=O)C4)CC3)cc1)C(=O)C2
Resp: < 0.01
